Listing of entries alongside the reported percent reduction in ELISA signal.
molecular target: T1, Antibody No. 465.1; assay: peptide blocking ELISA on plate-bound VISTA, peptide 20 ug/mL
T1 construct: also called Ab No. 465.1
EXPERIMENTAL_READOUT: percent reduction in ELISA signal (%)

QNVTLTCRLLGPVDK (synthetic overlapping peptide from human VISTA) [Spiked Peptide 4 (QNVTLTCRLLGPVDK)]	16
NFSITMRNLTLLDSG (synthetic overlapping peptide from human VISTA) [Spiked Peptide 20 (NFSITMRNLTLLDSG)]	24
FYKTWYRSSRGEVQT (synthetic overlapping peptide from human VISTA) [Spiked Peptide 8 (FYKTWYRSSRGEVQT)]	0
SDHHGNFSITMRNLT (synthetic overlapping peptide from human VISTA) [Spiked Peptide 19 (SDHHGNFSITMRNLT)]	4
